SYSTEM: human butyrylcholinesterase (hBChE) (Homo sapiens, UniProt P06276)
Sequence (P06276 29-602): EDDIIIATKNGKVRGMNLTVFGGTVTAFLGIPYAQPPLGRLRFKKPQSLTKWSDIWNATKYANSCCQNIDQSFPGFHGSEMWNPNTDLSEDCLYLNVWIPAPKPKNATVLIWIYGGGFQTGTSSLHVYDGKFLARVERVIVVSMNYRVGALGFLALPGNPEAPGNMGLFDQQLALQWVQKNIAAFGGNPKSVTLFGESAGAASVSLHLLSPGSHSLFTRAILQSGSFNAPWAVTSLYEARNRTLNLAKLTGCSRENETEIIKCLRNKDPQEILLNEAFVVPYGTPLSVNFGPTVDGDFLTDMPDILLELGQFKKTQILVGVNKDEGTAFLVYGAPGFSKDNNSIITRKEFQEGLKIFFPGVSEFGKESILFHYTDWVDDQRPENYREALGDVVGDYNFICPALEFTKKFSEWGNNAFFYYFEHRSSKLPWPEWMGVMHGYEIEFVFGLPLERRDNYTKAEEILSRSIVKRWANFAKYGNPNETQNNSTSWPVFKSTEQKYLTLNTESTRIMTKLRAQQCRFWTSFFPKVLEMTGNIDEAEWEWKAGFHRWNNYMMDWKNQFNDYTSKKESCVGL
pIC50: −log10 of the molar value.
Measured pIC50, listed per entry for reference.
QUANTITY_NAME: pIC50

CCCCCCCCCC[N+](C)(CCCCCCCCCCCC[N+](C)(CCCCCCCCCC)CCOC(=O)NCC)CCOC(=O)NCC (centres unmarked) [10-12-10(Et)] | 7.72
CCCCCCCCCCCCCC[N+](C)(CCCCCCCCCCCC[N+](C)(CCCCCCCCCCCCCC)CCOC(=O)NCC)CCOC(=O)NCC (centres unmarked) [14-12-14(Et)] | 5.84
